# system.under.test: human muscarinic M1 receptor (Homo sapiens, UniProt P11229)
# Construct: expressed in transfected cells
# Sequence (P11229 1-460): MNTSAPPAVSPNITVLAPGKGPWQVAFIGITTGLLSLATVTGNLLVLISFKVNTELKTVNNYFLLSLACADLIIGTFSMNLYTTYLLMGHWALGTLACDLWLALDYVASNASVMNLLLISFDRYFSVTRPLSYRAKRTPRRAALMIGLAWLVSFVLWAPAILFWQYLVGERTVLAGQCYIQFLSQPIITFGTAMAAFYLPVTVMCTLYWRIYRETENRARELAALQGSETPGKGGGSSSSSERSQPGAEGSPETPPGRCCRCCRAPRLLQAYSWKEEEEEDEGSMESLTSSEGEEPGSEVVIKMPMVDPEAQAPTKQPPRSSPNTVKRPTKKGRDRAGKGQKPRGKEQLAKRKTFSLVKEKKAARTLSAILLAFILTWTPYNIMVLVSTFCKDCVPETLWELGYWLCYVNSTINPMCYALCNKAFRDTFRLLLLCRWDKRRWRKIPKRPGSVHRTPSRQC
# test.description: Alphascreen Surefire phospho-ERK1/2 functional assay, M1
# Format: cell-based
# experimental.parameters: CHO cells stably expressing human M1; phospho-ERK1/2; read-out: pEC50 M1 (converted)
Exercise: state measured EC50 for each of the molecules provided.
One number for each entry, in nM.

Solved entries (count: 2):
| molecule | output.unit | EC50 |
| --- | --- | --- |
| C#CCOC(=O)N1CC2(CCC(N3CCC(C(=O)NC4(C)CCC4)CC3)C2)C1 (racemic) [Example 13 - racemic] | nM | 15.8 |
| [2H]C([2H])([2H])C([2H])([2H])OC(=O)N1CCC2(CC(N3CCC(C(=O)NC4(C)CCC4)CC3)C2)C1 (single isomer, unassigned) [Example 29 - Isomer 2] | nM | 55 |

Give me EC50 for each of these molecules, listed below.
1. CCOC(=O)N1CCC2(CC(N3CCC(C(=O)NC4(C)CCC4)CC3)C2)C1 (single isomer, unassigned) [Example 9 - Isomer 2]
2. [2H]C([2H])([2H])C([2H])([2H])OC(=O)N1CCC2(CC(N3CCC(C(=O)NC4(C([2H])([2H])[2H])C([2H])([2H])C([2H])([2H])C4([2H])[2H])CC3)C2)C1 (mixture of isomers) [Example 31 - mixture of diastereomers]

1. 36.3
2. 407

Give me EC50 for each of these molecules, listed below.
1. [2H]C([2H])([2H])C1(NC(=O)C2CCN(C3CC4(CCN(C(=O)OC([2H])([2H])C([2H])([2H])[2H])C4)C3)CC2)CCC1 (single isomer, unassigned) [Example 30 - Isomer 2]
2. CCOC(=O)N1CCC2(CC(N3CCC(C(=O)NC4(CF)CCC4)CC3)C2)C1 (single isomer, unassigned) [Example 23 - Isomer 2]
3. CCOC(=O)N1CC2(CCC(N3CCC(C(=O)NC4(C)CCC4)CC3)C2)C1 (racemic) [Example 12 - racemic]
4. [2H]C([2H])([2H])COC(=O)N1CCC2(CC(N3CCC(C(=O)NC4(C)CCC4)CC3)C2)C1 (single isomer, unassigned) [Example 25 - Isomer 2]

1: 85.1; 2: 155; 3: 35.5; 4: 53.7

Give me EC50 for each of these molecules, listed below.
1. CCOC(=O)N1C2CCC1CC(N1CCC(C(=O)NC3(C)CCC3)CC1)C2 (single isomer, unassigned) [Example 1 - Isomer 2]
2. CCOC(=O)N1[C@@H]2CCC[C@H]1CC(N1CCC(C(=O)NC3(C)CCC3)CC1)C2 (mixture of isomers) [Example 6 - mixture of diastereomers]
3. CC#CCOC(=O)N1CCC2(CC(N3CCC(C(=O)NC4(C)CCC4)CC3)C2)C1 (mixture of isomers) [Example 10 - mixture of diastereomers]

[41.7, 43.7, 155]

====

# system.under.test: human muscarinic M4 receptor (Homo sapiens, UniProt P08173)
# Construct: expressed in transfected cells
# Sequence (P08173 whole entry): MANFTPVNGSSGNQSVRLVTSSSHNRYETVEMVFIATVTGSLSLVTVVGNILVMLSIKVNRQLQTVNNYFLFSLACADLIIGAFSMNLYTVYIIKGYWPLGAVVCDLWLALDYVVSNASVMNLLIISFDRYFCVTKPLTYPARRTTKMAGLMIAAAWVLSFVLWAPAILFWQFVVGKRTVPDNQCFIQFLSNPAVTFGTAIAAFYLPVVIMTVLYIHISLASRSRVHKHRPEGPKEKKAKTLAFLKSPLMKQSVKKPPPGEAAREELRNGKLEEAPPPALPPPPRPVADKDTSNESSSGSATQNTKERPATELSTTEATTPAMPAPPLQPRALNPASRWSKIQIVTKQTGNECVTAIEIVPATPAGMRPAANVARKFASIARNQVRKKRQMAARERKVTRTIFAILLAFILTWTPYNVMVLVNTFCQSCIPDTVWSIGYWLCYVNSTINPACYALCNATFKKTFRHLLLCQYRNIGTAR
# test.description: Alphascreen Surefire phospho-ERK1/2 functional assay, M4
# Format: cell-based
# experimental.parameters: CHO cells stably expressing human M4; phospho-ERK1/2; read-out: pEC50 M4 (converted)
Exercise: state measured EC50 for each of the molecules provided.
Numbers only, in nM.

| molecule | parameter.measured | measurement |
| --- | --- | --- |
| CCOC(=O)N1CCC2(CC(N3CCC(C(=O)NC4(CF)CCC4)CC3)C2)C1 (single isomer, unassigned) [Example 23 - Isomer 2] | EC50 | 219 |
| CC#CCOC(=O)N1C2CCC1CC(N1CCC(C(=O)NC3(C)CCC3)CC1)C2 (single isomer, unassigned) [Example 3 - Isomer 2] | EC50 | 851 |
| [2H]C([2H])([2H])C1(NC(=O)C2CCN(C3CC4(CCN(C(=O)OC([2H])([2H])C([2H])([2H])[2H])C4)C3)CC2)CCC1 (single isomer, unassigned) [Example 30 - Isomer 2] | EC50 | 195 |
| CCOC(=O)N1CCC2(CC(N3CCC(F)(C(=O)NC4(C)CCC4)CC3)C2)C1 (mixture of isomers) [Example 11 - mixture of diastereomers] | EC50 | 204 |
| CCOC(=O)N1C2CCC1CC(N1CCC(C(=O)NC3(C)CCC3)CC1)C2 (single isomer, unassigned) [Example 1 - Isomer 1] | EC50 | 1020 |
| [2H]C([2H])([2H])C1(NC(=O)C2CCN(C3CC4(CCN(C(=O)OCC)C4)C3)CC2)C([2H])([2H])C([2H])([2H])C1([2H])[2H] (single isomer, unassigned) [Example 22 - Isomer 2] | EC50 | 209 |
| CCOC(=O)N1C2CCC1CC(N1CCC(F)(C(=O)NC3(C)CCC3)CC1)C2 (single isomer, unassigned) [Example 4 - Isomer 2] | EC50 | 1070 |
| [2H]C([2H])([2H])COC(=O)N1CCC2(CC(N3CCC(C(=O)NC4(CF)CCC4)CC3)C2)C1 (single isomer, unassigned) [Example 28 - Isomer 2] | EC50 | 309 |

Give me EC50 for each of these molecules, listed below.
1. [2H]C([2H])([2H])C([2H])([2H])OC(=O)N1CCC2(CC(N3CCC(C(=O)NC4(C)CCC4)CC3)C2)C1 (single isomer, unassigned) [Example 29 - Isomer 2]
2. C#CCOC(=O)N1CC2(CCC(N3CCC(C(=O)NC4(C)CCC4)CC3)C2)C1 (racemic) [Example 13 - racemic]
3. CCOC(=O)N1CCC2(CC(N3CCC(C(=O)NC4(C)CCC4)CC3)C2)C1 (mixture of isomers) [Example 9 - mixture of diastereomers]

186
52.5
380

====

# system.under.test: human muscarinic M3 receptor (Homo sapiens, UniProt P20309)
# Construct: expressed in transfected cells
# Sequence (P20309 whole entry): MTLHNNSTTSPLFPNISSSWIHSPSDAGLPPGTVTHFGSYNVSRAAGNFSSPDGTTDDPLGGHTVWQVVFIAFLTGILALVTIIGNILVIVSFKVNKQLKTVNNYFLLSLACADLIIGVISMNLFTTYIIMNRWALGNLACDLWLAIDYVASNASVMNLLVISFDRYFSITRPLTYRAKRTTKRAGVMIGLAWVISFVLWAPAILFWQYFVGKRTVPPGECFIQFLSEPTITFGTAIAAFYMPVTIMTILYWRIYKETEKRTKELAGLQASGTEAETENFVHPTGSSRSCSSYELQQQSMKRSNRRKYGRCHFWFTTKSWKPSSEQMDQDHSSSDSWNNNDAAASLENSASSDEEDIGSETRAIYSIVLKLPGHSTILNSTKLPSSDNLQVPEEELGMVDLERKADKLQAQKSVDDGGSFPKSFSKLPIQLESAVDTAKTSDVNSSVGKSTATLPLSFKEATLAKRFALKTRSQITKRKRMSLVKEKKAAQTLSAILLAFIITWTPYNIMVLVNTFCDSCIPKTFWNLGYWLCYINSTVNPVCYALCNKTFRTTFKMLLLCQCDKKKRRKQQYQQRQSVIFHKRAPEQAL
# test.description: Alphascreen Surefire phospho-ERK1/2 functional assay, M3
# Format: cell-based
# experimental.parameters: CHO, read-out: % Emax cf. ACh, M3
Lab note: cut-off is 4%. Strictly less in Emax is label 1. Exactly 4% or more is label 0.

Quick check: does C#CCOC(=O)N1CC2(CCC(N3CCC(C(=O)NC4(C)CCC4)CC3)C2)C1 (racemic) [Example 13 - racemic] have Emax under 4%?
label 0

Quick check: does CC#CCOC(=O)N1CCC2(CC(N3CCC(C(=O)NC4(C)CCC4)CC3)C2)C1 (mixture of isomers) [Example 10 - mixture of diastereomers] have Emax under 4%?
label 1

====

Exercise: state measured Emax for each of the compounds provided.
# system.under.test: human muscarinic M3 receptor (Homo sapiens, UniProt P20309)
# Construct: expressed in transfected cells
# test.description: Alphascreen Surefire phospho-ERK1/2 functional assay, M3
# Type: cell-based
# experimental.parameters: CHO, read-out: % Emax cf. ACh, M3
State the result as a value with its unit after it.

Solved entries (count: 2):
| compound | Emax |
| --- | --- |
| CCOC(=O)N1CCC2(CC(N3CCC(C(=O)NC4(C)CCC4)CC3)C2)C1 (single isomer, unassigned) [Example 9 - Isomer 2] | 9% |
| [2H]C([2H])([2H])COC(=O)N1CCC2(CC(N3CCC(C(=O)NC4(C)CCC4)CC3)C2)C1 (single isomer, unassigned) [Example 25 - Isomer 2] | 17% |

Would you kindly look at the next entry?
For the record C#CCOC(=O)N1C2CCC1CC(N1CCC(C(=O)NC3(C)CCC3)CC1)C2 (single isomer, unassigned) [Example 2 - Isomer 1] , what value of Emax is listed for human muscarinic M3 receptor (Homo sapiens, UniProt P20309)?
7%

====

Exercise: state measured EC50 for each of the compounds provided.
# system.under.test: human muscarinic M1 receptor (Homo sapiens)
# Construct: expressed in transfected cells
# test.description: Alphascreen Surefire phospho-ERK1/2 functional assay, M1
# Format: cell-based
# experimental.parameters: CHO cells stably expressing human M1; phospho-ERK1/2; read-out: pEC50 M1 (converted)

Solved entries (count: 5):
| compound | measurement |
| --- | --- |
| CCOC(=O)N1CC2CC(N3CCC(C(=O)NC4(C)CCC4)CC3)CC2C1 (mixture of isomers) [Example 8 - mixture of diastereomers] | 110 nM |
| CC#CCOC(=O)N1C2CCC1CC(N1CCC(C(=O)NC3(C)CCC3)CC1)C2 (single isomer, unassigned) [Example 3 - Isomer 2] | 363 nM |
| CCOC(=O)N1CC2CC(N3CCC(C(=O)NC4(C)CCC4)CC3)CC1C2 (mixture of isomers) [Example 7 - mixture of diastereomers] | 55 nM |
| CCOC(=O)N1CCC2(CC(N3CCC(C(=O)NCC4CCC4)CC3)C2)C1 (mixture of isomers) [Example 19 - mixture of diastereomers] | 363 nM |
| CCOC(=O)N1CCC2(CC(N3CCC(C(=O)NC(C)(C)CC)CC3)C2)C1 (mixture of isomers) [Example 16 - mixture of diastereomers] | 309 nM |

For the record CCOC(=O)N1CCC2(CC(N3CCC(C(=O)NC4(C)CCC4)CC3)C2)C1 (mixture of isomers) [Example 9 - mixture of diastereomers] , what value of EC50 is listed for human muscarinic M1 receptor (Homo sapiens)?
51.3 nM
